Experimental System: T1, 4H953-bH
T1 chain: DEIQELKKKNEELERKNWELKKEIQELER
Assay Remarks: two-hybrid library CCNG1;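 also: natural log of median RNA to DNA barcode read ratio; higher means stronger binding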
Consider the cut-off 0.5. If the recorded interaction score is strictly smaller, the label is Fulfilled; if not, the label is Not fulfilled.

Binder | Assigned Label
DEIQELKKENEELERKIWELKKENQELER [4H683-bH] | Fulfilled
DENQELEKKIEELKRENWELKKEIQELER [4H1369-bH] | Fulfilled

Exercise: Dear reviewer, please state whether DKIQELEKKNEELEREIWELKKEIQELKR [4H2442-bH] has interaction score strictly beneath 0.5.
Key: Not fulfilled
